Hello, the source for this data is PubChem BioAssay (NCATS), in case you need it.

# method: BET inhibitor-based combinations targeting novel dependencies in MECOM-rearranged (r) AML: MV-4-11 cell line (AID 2202233); note: nearly all actives have a fitted effect of over 45% in size
# condition_parameters: MV-4-11 AML viability, CellTiter-Glo luminescence, 48 h; series mostly up to 46 µM
Results filed as inconclusive are left out. The source made the active and inactive calls. Calls come from the whole dose curve; as a rule, active = well fitted inhibition curve with a large enough effect; inconclusive = small, poorly fitted or top-dose-only effect; inactive = no such curve, though single readings can be large or run the other way.
Write down one outcome, taken from active, inactive

Ask | Dear all, I need the recorded test outcome for CCCOc1ccc(C(=O)OCCN(CC)CC)cc1N , thank you.
Reply | inactive

Ask | Dear all, I need the recorded test outcome for CNNCc1ccc(C(=O)NC(C)C)cc1 , thank you.
Reply | inactive

Ask | Dear all, I need the recorded test outcome for COc1cc2c(Nc3ccc(Br)cc3F)ncnc2cc1OCC1CCN(C)CC1 , thank you.
Reply | active

Ask | Dear all, I need the recorded test outcome for C=C1c2cccc(O)c2C(O)=C2C(=O)[C@@]3(O)C(O)=C(C(N)=O)C(=O)[C@@H](N(C)C)[C@@H]3[C@@H](O)[C@H]12 , thank you.
Reply | inactive

Ask | Dear all, I need the recorded test outcome for C1CCC(C(CC2CCCCN2)C2CCCCC2)CC1 (stereo unspecified) , thank you.
Reply | active

Ask | Dear all, I need the recorded test outcome for O=S(=O)(O)CCSSCCS(=O)(=O)O , thank you.
Reply | inactive

---

# assayed_system: Cellular tumor antigen p53 (Homo sapiens) (UniProt P04637)
# Sequence (P04637 whole entry, looked up): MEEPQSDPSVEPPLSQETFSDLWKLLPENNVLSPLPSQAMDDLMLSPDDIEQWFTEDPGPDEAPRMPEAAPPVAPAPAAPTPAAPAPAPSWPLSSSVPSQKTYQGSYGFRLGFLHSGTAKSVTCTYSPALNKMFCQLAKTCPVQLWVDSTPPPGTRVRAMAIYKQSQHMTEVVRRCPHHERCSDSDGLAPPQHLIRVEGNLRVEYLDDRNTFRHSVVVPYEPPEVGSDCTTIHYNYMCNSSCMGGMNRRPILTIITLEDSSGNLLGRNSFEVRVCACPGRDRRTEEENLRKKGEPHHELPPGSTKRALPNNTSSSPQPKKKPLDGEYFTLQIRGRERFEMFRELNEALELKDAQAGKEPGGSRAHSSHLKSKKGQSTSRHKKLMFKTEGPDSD
# method: Primary qHTS for small molecule compounds that upregulate eGFP-tagged delta133p53alpha (in N-terminal) cells. (AID 2060322);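 note: cells pre-induced with doxycycline then dosed without doxycycline; 0% = DMSO vehicle and 100% = reference activator; nearly all actives have a fitted effect of over 75% in size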
# condition_parameters: NCI-H358 eGFP-delta133p53alpha fluorescence, 24 h; hits give high values
Records with an inconclusive call do not appear. The source made the active and inactive calls. Calls come from the whole dose curve; as a rule, active = well fitted activation curve with a large enough effect; inconclusive = small, poorly fitted or top-dose-only effect; inactive = no such curve, though single readings can be large or run the other way.
Each item that follows carries a reported activation.

Examples with their reported activation follow.
CC[C@H]1OC(=O)[C@H](C)[C@@H](O[C@H]2C[C@@](C)(OC)[C@@H](O)[C@H](C)O2)C(C)[C@@H](O[C@@H]2O[C@H](C)C[C@H](N(C)C)[C@H]2O)[C@](C)(O)C[C@@H](C)CN(C)[C@H](C)[C@@H](O)[C@]1(C)O (some centres undefined) : -5.73% (inactive)
CC(C)(C)OC(=O)c1ncn2c1C(C)(C)Nc1ccccc1-2 : -12.5% (inactive)
CC(=O)N(CC(O)CN(C(C)=O)c1c(I)c(C(=O)NCC(O)CO)c(I)c(C(=O)NCC(O)CO)c1I)c1c(I)c(C(=O)NCC(O)CO)c(I)c(C(=O)NCC(O)CO)c1I (centres undefined) : -16.7% (inactive)

Ask | Please indicate activation recorded for CC(Oc1ccc(O)cc1)(P(=O)(O)O)P(=O)(O)O
Reply | -17.7% (inactive)

---

# assayed_system: Aldehyde dehydrogenase 1A1 (Homo sapiens) (UniProt P00352)
# method: qHTS for Inhibitors of the Aldehyde Dehydrogenase Family (ALDH1A1) Confirmatory screens (AID 2061316); note: nearly all actives have a fitted effect of over 65% in size
# condition_parameters: ALDH inhibition qHTS; series mostly up to 47.3 µM
Records with an inconclusive call do not appear. The source made the active and inactive calls. The call rests on the fitted dose curve; in most records, active means well fitted inhibition curve with a large enough effect; inconclusive means small, poorly fitted or top-dose-only effect; inactive means no such curve, though single readings can be large or run the other way.
Write down one outcome, taken from active, inactive

O=C(O)c1ccc(-n2cccc2/C=C2\SC(=O)N(Cc3ccc(Cl)cc3)C2=O)cc1 : active
CCOC(=O)c1ccc(O)c2ncc(N3CCC(C(=N)N)CC3)cc12 : inactive
Cc1ccc(CNc2ccc(N3CCN(C)CC3)cc2)cc1 : inactive
CCOc1ccccc1-c1nnc2n1N=C(c1ccc(OC)cc1)CS2 : active
O=C(NCc1ccc(F)c(F)c1)c1ccc2nnc(-c3cccc(C(F)(F)F)c3)n2c1 : inactive
NC(N)=NCCC[C@H](NC(=O)c1sccc1NS(=O)(=O)c1cccc2nsnc12)C(=O)O : inactive

Ask | Dear all, I need the recorded test outcome for O=C1NS(=O)(=O)c2cc(Br)ccc21 , thank you.
Reply | inactive

Ask | Dear all, I need the recorded test outcome for Cc1ccc(NC(=O)CN2C(=O)N/C(=C\c3cccn3-c3ccc(P(=O)(O)O)cc3)C2=O)cc1 , thank you.
Reply | inactive

Ask | Dear all, I need the recorded test outcome for c1ccc(C(NCCNC(c2ccccc2)c2ccccc2)c2ccccc2)cc1 , thank you.
Reply | inactive

Ask | Dear all, I need the recorded test outcome for CCc1nc2c(sc3nc4c(cc32)COC(C)(C)C4)c(=O)n1Cc1ccco1 , thank you.
Reply | active
